Please provide measured IC50 for the entries that follow.
- measured.target: UniProt P05067
- Sequence (P05067 whole entry): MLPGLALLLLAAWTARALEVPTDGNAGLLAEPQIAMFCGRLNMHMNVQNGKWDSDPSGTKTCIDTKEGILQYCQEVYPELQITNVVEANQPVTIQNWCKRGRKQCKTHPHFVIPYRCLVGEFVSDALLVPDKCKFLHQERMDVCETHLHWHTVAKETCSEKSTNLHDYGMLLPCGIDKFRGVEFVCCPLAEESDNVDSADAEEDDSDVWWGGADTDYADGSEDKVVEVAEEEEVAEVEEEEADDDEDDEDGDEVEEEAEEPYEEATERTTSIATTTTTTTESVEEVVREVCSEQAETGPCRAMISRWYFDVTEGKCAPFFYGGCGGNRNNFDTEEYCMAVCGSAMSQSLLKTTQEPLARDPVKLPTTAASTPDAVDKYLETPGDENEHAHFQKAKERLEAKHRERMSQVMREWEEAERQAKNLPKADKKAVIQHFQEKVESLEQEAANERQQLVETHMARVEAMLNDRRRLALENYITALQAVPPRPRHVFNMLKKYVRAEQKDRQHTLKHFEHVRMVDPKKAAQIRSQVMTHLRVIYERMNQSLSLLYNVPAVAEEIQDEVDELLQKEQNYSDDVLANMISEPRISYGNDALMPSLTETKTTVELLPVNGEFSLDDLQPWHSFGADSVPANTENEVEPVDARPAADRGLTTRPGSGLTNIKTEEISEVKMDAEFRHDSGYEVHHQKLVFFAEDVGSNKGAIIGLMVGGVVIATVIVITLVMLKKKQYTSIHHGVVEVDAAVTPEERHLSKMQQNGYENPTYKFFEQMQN
- test.details: Inhibition of amyloid beta (1-42) self-mediated aggregation (unknown origin) after 5 days by thioflavin T fluorescence method
Numbers only, in µM.

O=C(/C=C/c1ccc(O)cc1)c1ccc(O)cc1O :: 19.7
COc1ccc(C(=O)/C=C/c2ccc(C(=O)N(C)c3ccccc3)cc2)c(O)c1 :: 20.1
CCOCCOc1ccc(/C=C/C(=O)c2ccc(OC)cc2O)cc1 :: 19.1

Hi team, please reply with IC50 for each item in this list.
1. COc1ccc(C(=O)/C=C/c2ccc(OCc3ccccc3)cc2)c(O)c1
2. COc1ccc(C(=O)/C=C/c2ccc(C(=O)NC(C)C)cc2)c(O)c1
3. CCCCCCCCCCCCNC(=O)c1ccc(/C=C/C(=O)c2ccc(OC)cc2O)cc1
4. COc1ccc(C(=O)/C=C/c2ccc(C(=O)Nc3ccccc3O)cc2)c(O)c1
5. COc1ccc(C(=O)/C=C/c2cc(OC)c(OC)c(OC)c2)c(O)c1
6. COc1ccc(C(=O)/C=C/c2cc(Br)c(OCc3ccccc3)c(OC)c2)c(O)c1

7.8
17.8
15.9
10.1
9.7
12.5

Print UniProt P05067 IC50 for "COc1ccc(C(=O)/C=C/c2ccc(C(=O)N3CCOCC3)cc2)c(O)c1" . 3.2
